target: TAMRA-PEPPKA(p); assay: Zn(II)-mediated QD-FRET between QD525 and TAMRA-labelled phosphopeptide; settings: free Zn(II) ions; QD 2 nM, TAMRA-PEPPKA(p) 80 nM (1:40 molar ratio); read-out: binding affinity Kd for TAMRA-PEPPKA(p), based on the FRET efficiency
READOUT_NAME: pKd
Keep it numeric: pKd is minus log10 of the concentration in mol/L.

Recall the reported pKd of [Cl-].[Cl-].[Zn+2] on TAMRA-PEPPKA(p) and write it down.
5.06
